pKi: −log10 of the molar value.
// merged dataset of pKi values, system = Histamine H3 receptor (Cavia porcellus), multiple refs
Sequence (Q9JI35 whole entry): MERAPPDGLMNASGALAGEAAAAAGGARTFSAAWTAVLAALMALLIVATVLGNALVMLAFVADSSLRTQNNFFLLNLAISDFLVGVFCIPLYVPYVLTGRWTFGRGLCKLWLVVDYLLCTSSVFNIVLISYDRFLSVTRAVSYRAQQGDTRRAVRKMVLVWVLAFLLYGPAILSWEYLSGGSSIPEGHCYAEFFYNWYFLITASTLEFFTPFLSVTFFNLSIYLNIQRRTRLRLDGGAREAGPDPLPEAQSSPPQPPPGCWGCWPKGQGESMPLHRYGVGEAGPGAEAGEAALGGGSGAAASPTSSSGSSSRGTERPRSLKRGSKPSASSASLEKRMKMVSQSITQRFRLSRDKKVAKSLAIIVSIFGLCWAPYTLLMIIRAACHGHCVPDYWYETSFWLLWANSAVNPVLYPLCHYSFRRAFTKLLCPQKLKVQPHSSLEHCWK
quantityName: pKi

Recorded results for 10 compounds are shown here.
c1nc(CC2CCN(CCCCOc3ccc(CN4CCCCC4)cc3)CC2)c[nH]1 :: 7.80
O=S(=O)(NCCCc1c[nH]cn1)c1ccc(Cl)cc1 :: 6.42
c1cnc(-c2ccc(OCCCN3CCC(Cc4cnc[nH]4)CC3)cc2)nc1 :: 7.35
Cn1c(=O)n(C2CCN(C(=O)C3CCN(Cc4ccncc4)CC3)CC2)c2ccccc21 :: 8.37
O=S(=O)(CCCN1CCC(Cc2c[nH]cn2)CC1)c1ccccc1 :: 7.60
Clc1ccc(C(CCNCCCCCc2cnc[nH]2)c2ccccn2)cc1 (configuration not stated) :: 7.48
COc1ccc(Cn2c(=O)n(C3CCN(C(=O)C4CCN(Cc5ccncc5)CC4)CC3)c3ccccc32)cc1 :: 9.60
CN(Cc1ccc(Cc2cnc[nH]2)cc1)C(=O)N(C)c1cc(Cl)cc(Cl)c1 :: 6.43
C[C@]1(c2c[nH]cn2)CCNC1 :: 6.77
O=C(c1ccc(OCCCN2CCC(Cc3cnc[nH]3)CC2)cc1)N1CCNCC1 :: 7.64

[1] c1ncc(CC2CCN(CCOc3ccc(CN4CCCCC4)cc3)CC2)[nH]1
[2] COCCCNC(=O)c1cccc(CN2CCN(C(=O)C3CCN(Cc4ccncc4)CC3)CC2)c1
[3] O/N=C/c1ccc(OCCCN2CCC(Cc3c[nH]cn3)CC2)cc1
[4] O=C(C1CCN(Cc2ccncc2)CC1)N1CCC(n2c(=O)n(Cc3cccc(Cl)c3)c3ccccc32)CC1
[5] O=C(NCCc1ccccc1)c1cccc(CN2CCN(C(=O)C3CCN(Cc4ccncc4)CC3)CC2)c1
(Q) Sort (5 compounds) by pKi: min first. State the ranking by listing the labels in the requested order.
(A) 2, 3, 5, 1, 4
(2: 6.68, 3: 7.36, 5: 7.57, 1: 8.30, 4: 8.70)

[A] c1nc(CC2CCN(CCCOc3ccc(CN4CCCCC4)cc3)CC2)c[nH]1
[B] O=C(CCC(=O)N1CCC(Cc2c[nH]cn2)CC1)Nc1ccc(Cl)cc1
(Q) Decide: A or B , by lowest recorded pKi. Returns: label corresponding to the selected item.
(A) B
